# key: entry, value: TGI
System: MDA-MB-231 breast
Assay: NCI tumour cell line growth inhibition, 48 h

Example results:
IN: Entry under review: O=C1NCN(c2ccccc2)C12CCN(CC1COc3ccccc3O1)CC2 (configuration not stated) . Reported TGI?
OUT: > 100 µM

IN: Repeat for the following compound: O=C(Cn1c2ccc(Br)cc2c2nc3ccccc3nc21)Nc1ccccc1
OUT: 34.2 µM

IN: Repeat for the following compound: Cc1nc2ccccc2c(=O)n1/N=C(\N=Nc1cc(Cl)ccc1Cl)c1ccccc1
OUT: > 100 µM

Continuing:
IN: Entry under review: Cn1cnnc1[S-].[Au+].c1ccc([PH+](c2ccccc2)c2ccccc2)cc1 . Reported TGI?
OUT: 3.08 µM

IN: Repeat for the following compound: Cc1ccc(-c2cn3c(nc4ccccc43)c(/C=C/c3ccco3)n2)cc1
OUT: > 100 µM

* * *

# key: entry, value: TGI
System: KM12 colon
Experiment: NCI tumour cell line growth inhibition, 48 h

Example results:
IN: Entry under review: COc1ccccc1-c1c(C#N)c(N)[nH]c(=S)c1C#N . Reported TGI?
OUT: > 100 µM

IN: Repeat for the following compound: Cc1[nH]c(-c2ccccc2)c2nc(N(C)C)oc(=O)c12
OUT: > 100 µM

IN: Repeat for the following compound: Oc1ccccc1C=Nc1ccc(-c2nc3ccccc3s2)cc1
OUT: > 100 µM

IN: Repeat for the following compound: CCn1c(-c2nonc2N)nc2cnc(Oc3cccc(NC(=O)c4ccc(N(C)C)cc4)c3)cc21
OUT: > 25 µM

IN: Repeat for the following compound: C=CCN1CCC(c2cc(C(=O)OCC)[nH]c2-c2cc(C)no2)C1=O (stereo unspecified)
OUT: > 100 µM

IN: Repeat for the following compound: COc1ccc(CCn2cncn2)cc1
OUT: > 100 µM

Continuing:
IN: Entry under review: CC[C@H]1OC(=O)[C@H](C)[C@@H](O[C@H]2C[C@@](C)(OC)[C@@H](O)[C@H](C)O2)[C@H](C)[C@@H](O[C@@H]2O[C@H](C)C[C@H](N(C)C)[C@H]2O)[C@](C)(OC)C/C(C)=C2/O[C@@]1(C)C=C2C . Reported TGI?
OUT: 3.11 µM

IN: Repeat for the following compound: COc1cc(C2c3cc4c(cc3C(=O)C3CCC(=O)N32)OCO4)cc(OC)c1O (stereo unspecified)
OUT: > 50 µM

* * *

System: OVCAR-3 ovarian
Assay: NCI tumour cell line growth inhibition, 48 h
metric name: GI50

Example results:
IN: Reported GI50 for OVCAR-3 ovarian, given CN(C)c1ccc(C(O)C2=CC(=O)c3ccccc3C2=O)cc1 (stereo not drawn) ?
OUT: 2.75 µM

IN: Repeat for the following compound: Cc1cc(NN=C(c2ccc(O)cc2)c2ccc(O)cc2)c([N+](=O)[O-])cc1[N+](=O)[O-]
OUT: 4.14 µM

Continuing:
IN: Reported GI50 for OVCAR-3 ovarian, given C#C[C@]1(O)CC[C@H]2[C@@H]3CC=C4c5nc(N)sc5CC[C@]4(C)[C@H]3CC[C@@]21C ?
OUT: 3.1 µM

* * *

Tested on: PC-3 prostate
Test: NCI tumour cell line growth inhibition, 48 h
# key: entry, value: GI50

Example results:
IN: Reported GI50 for PC-3 prostate, given O=c1[nH]cnc2n[nH]nc12 ?
OUT: 5.99 µM

IN: Repeat for the following molecule: CN(C)c1ccc(-c2ccc(-c3ccc(C(=N)N)cn3)o2)cc1
OUT: 1.5 µM

IN: Repeat for the following molecule: Cc1ccc(C2CC(c3ccc(Nc4ccnc5cc(Cl)ccc45)cc3)=NN2C=O)cc1 (configuration not stated)
OUT: 4.61 µM

IN: Repeat for the following molecule: O=[N+]([O-])/C=C/c1ccc(Cl)cc1[N+](=O)[O-]
OUT: 2.54 µM

IN: Repeat for the following molecule: COc1cc(-c2nn(-c3cccc(NC(=O)CCNc4ccc(N5CCOCC5)cc4)c3)cc2-c2ccncc2)ccc1Cl
OUT: 2.8 µM

IN: Repeat for the following molecule: N#[N+]c1ccc(Nc2ccccc2)cc1
OUT: > 50 µg/mL

Moving on to another molecule below.
IN: Reported GI50 for PC-3 prostate, given CC(C)OP(=O)(O)c1ncc(-c2ccc(C(F)(F)F)cc2)c(NC2CCCCCC2)n1 ?
OUT: 57.1 µM

* * *

Test system: M14 melanoma
Assay: NCI tumour cell line growth inhibition, 48 h
metric name: TGI

Example results:
IN: Entry under review: CC(C)OP(=O)(OC(C)C)C(C)(C)O . Reported TGI?
OUT: > 100 µM

IN: Repeat for the following compound: O=C1CSC(c2ccccc2O)N1c1ccc(-n2c(-c3ccccc3)nc3ccccc3c2=O)cc1 (stereo not drawn)
OUT: > 100 µM

Moving on to another compound below.
IN: Entry under review: CC(=O)OCC1OC(n2c3c(cc(C#N)c2=S)CCCC3)C(OC(C)=O)C(OC(C)=O)C1OC(C)=O (stereo not drawn) . Reported TGI?
OUT: > 100 µM

* * *

System: OVCAR-3 ovarian
Assay: NCI tumour cell line growth inhibition, 48 h
metric name: GI50

Example results:
IN: Entry under review: Nn1c(-c2ccc(Cl)cc2)nc2c(-c3ccc(Cl)cc3)nc3ccc(Cl)cc3c2c1=O . Reported GI50?
OUT: 2700 nM

IN: Repeat for the following compound: CC(O)[C@H](NC(=O)N[C@@H](CC(N)=O)c1nc(N2CCNCC2)no1)C(=O)O (some centres undefined)
OUT: > 100000 nM

IN: Repeat for the following compound: CCn1c(-c2nonc2N)nc2cnc(Oc3cccc(NC(=O)c4ccc(N(C)C)cc4)c3)cc21
OUT: > 25000 nM

Moving on to another compound below.
IN: Entry under review: C=CC(=O)Nc1cc2c(Nc3ccc(F)c(Cl)c3)ncnc2cc1C#CC(C)(C)N1CCN(C)CC1 . Reported GI50?
OUT: 1130 nM

* * *

Tested on: NCI-H226 lung
Assay: NCI tumour cell line growth inhibition, 48 h
metric name: TGI

Example results:
IN: Entry under review: COc1cc2cc(C(=O)N3CC(CCl)c4ccc([N+](C)(C)Cc5ccccc5[N+](=O)[O-])cc43)[nH]c2c(OC)c1OC (configuration not stated) . Reported TGI?
OUT: 19.5 µM

IN: Repeat for the following compound: Cc1cn(C2CC(N=[N+]=[N-])C(COP(=O)(O)OCC3OC(n4cc(F)c(=O)[nH]c4=O)CC3O)O2)c(=O)[nH]c1=O (configuration not stated)
OUT: > 100 µM

IN: Repeat for the following compound: COc1cc(NC2CCCCC2O)c2nc(-c3ccc(Cl)cc3)ccc2c1 (configuration not stated)
OUT: > 100 µM

IN: Repeat for the following compound: CC(=O)[C@H]1[C@H](O)C[C@@]2(C)[C@@H]3CCc4cc(O)c(OC5OC(CO)C(O)C(O)C5O)cc4C3(C)C(=O)C[C@]12C (some centres not stated)
OUT: > 100 µM

IN: Repeat for the following compound: Cc1cc(-c2nc3c(F)cccc3s2)ccc1N
OUT: > 100 µM

IN: Repeat for the following compound: COc1ccc(COCC[C@H](C)OC2OC(CO)C(O)C(O)C2O)cc1 (some centres not stated)
OUT: > 100 µM

IN: Repeat for the following compound: COc1ccc2[nH]c3c(c2c1)[C@H]1CCC(C(C)(C)C)C[C@H]1[C@H]1C(=O)N(c2ccccc2)C(=O)[C@@H]31 (some centres not stated)
OUT: 81.9 µM

IN: Repeat for the following compound: CC(C)OP(=O)(O)c1ncc(-c2ccc(C(F)(F)F)cc2)c(NC2CCCCCC2)n1
OUT: > 100 µM

IN: Repeat for the following compound: CCOc1nc2c(N3CCCC3)nc(N3CCNCC3)nc2nc1NCc1ccccc1
OUT: 3.82 µM

IN: Repeat for the following compound: CCCCCCCCCCCCOCC1(COCCCCCCCCCCCC)COC(c2ccc(N)cc2)OC1
OUT: > 100 µM

Continuing:
IN: Entry under review: O=C1NC2(CCNCC2)Oc2ccccc21 . Reported TGI?
OUT: > 100 µM

IN: Repeat for the following compound: N#[N+]c1ccc(Nc2ccccc2)cc1
OUT: > 50 µg/mL

* * *

System: HCT-15 colon
Experiment: NCI tumour cell line growth inhibition, 48 h
# key: entry, value: TGI

Example results:
IN: Entry under review: Cc1c(/C=N/NC(=S)N2CCCCC2)c(=O)n(-c2ccccc2)n1C . Reported TGI?
OUT: > 100 µM

IN: Repeat for the following compound: COC(=O)C(=O)C(C(=O)C(=O)Nc1ccc(C)cc1C)c1nc2ccc(Cl)cc2[nH]c1=O (stereo not given)
OUT: > 100 µM

IN: Repeat for the following compound: O=C(Cn1c2ccc(Br)cc2c2nc3ccccc3nc21)Nc1ccccc1
OUT: 70.5 µM

IN: Repeat for the following compound: O=C(O)c1cc2ccccc2c(N=Nc2ccc(S(=O)(=O)Nc3ncccn3)cc2)c1O
OUT: > 100 µM

Continuing:
IN: Entry under review: CC1(C)C2CCC13C(=O)C1OC3(C2)C2C(=O)c3c(ccc4c3ccc3ccccc34)C(=O)C12 (stereo not given) . Reported TGI?
OUT: > 100 µM
